// values below are reported IC50
Tested on: CH1
Method Notes: The compound was tested for cytotoxic activity against CH1 cell line(human ovarian carcinoma )
Assay type: functional, cell-based
Provide only the numeric value, understood in µM.

Take a look at these entries with their results.
CN(C)CCNC(=O)c1ccc(Cl)c2cc3ccccc3nc12 ... 1.75
CN(C)CCCNC(=O)c1ccc(NCCCN(C)C)c2cc3ccccc3nc12 ... 0.86
O=C(NCCN1CCOCC1)c1ccc(NCCN2CCOCC2)c2cc3ccccc3nc12 ... 1.85

Exercise: What does the data say about its IC50? Entry: `COc1ccc2nc3c(C(=O)NCCN(C)C)ccc(NCCN(C)C)c3cc2c1`
Solution: 0.05

* * *

Test system: Nucleic Acid
Method Notes: Binding affinity against GC from [poly(dG-dC)]2.
Format: nucleic-acid assay
Measured Endpoint: log10 K app (log10 of the value in M⁻¹)
log10 K app, M⁻¹

CN(C)CCNC(=O)c1cccc2cc3ccccc3nc12 ... 6.00
CCN(CC)CCNC(=O)c1ccc(NCCN(CC)CC)c2cc3ccccc3nc12 ... 7.96
CN(C)CCNC(=O)c1ccc(NCCN(C)C)c2cc3cc(N)ccc3nc12 ... 8.61

Lab note: next molecule to report on.
Exercise: Which measured log10 K app value corresponds to `CN(C)CCNC(=O)c1ccc(NCCNCCO)c2cc3ccccc3nc12` ?
Solution: 8.48

* * *

K app values, listed per item
Tested on: Nucleic Acid
Method Notes: Binding affinity against CT-DNA from calf thymus DNA
Assay type: nucleic-acid assay
Experimental Setup: Bos taurus
Report the value in M⁻¹ with no unit label.

Consider the worked cases shown below.
CN(C)CCNC(=O)c1ccc(NCCNCCO)c2cc3ccccc3nc12 ... 9.9e+07
COc1ccc2nc3c(C(=O)NCCN(C)C)ccc(NCCN(C)C)c3cc2c1 ... 1.9e+07
CCN(CC)CCNC(=O)c1ccc(NCCN(CC)CC)c2cc3ccccc3nc12 ... 1.5e+08
CN(C)CCNC(=O)c1cccc2cc3ccccc3nc12 ... 1.1e+06

Exercise: So what does the record say about K app for `O=C(NCCN1CCOCC1)c1ccc(NCCN2CCOCC2)c2cc3ccccc3nc12` ?
Solution: 4.4e+06

Exercise: Also, `CN(C)CCNC(=O)c1ccc(NCCN(C)C)c2cc3cc(O)ccc3nc12` please.
Solution: 2.9e+08

* * *

Listed here: items and their measured K app.
Test system: Nucleic Acid
Method Notes: Binding affinity against CT-DNA from calf thymus DNA
Assay type: nucleic-acid assay
Experimental Setup: Bos taurus
All answers are understood in M⁻¹, so give the number only.

Answered examples (4):
CN(C)CCNC(=O)c1ccc(NCCN(C)C)c2c(=O)c3ccccc3[nH]c12 ... 3.7e+07
NCCNC(=O)c1ccc(NCCN)c2cc3ccccc3nc12 ... 8.5e+07
CN(C)CCNC(=O)c1ccc(NCCN(C)C)c2cc3ccccc3nc12 ... 1.5e+09
O=C(NCCN1CCCCC1)c1ccc(NCCN2CCCCC2)c2cc3ccccc3nc12 ... 3.4e+07

Exercise: Missing value: K app, Nucleic Acid, entry `CN(C)CCNC(=O)c1ccc(NCCN(C)C)c2cc3cc(N)ccc3nc12` . Fill in?
Solution: 1.4e+09

* * *

System: CH1
Method Notes: The compound was tested for cytotoxic activity against CH1 cell line(human ovarian carcinoma )
Format: functional, cell-based
Listed compounds paired with reported IC50
Express the result in nM but write the number alone.

Exercise: So what's the measured IC50 for this one? `CN(C)CCNC(=O)c1ccc(NCCN(C)C)c2cc3cc(O)ccc3nc12`
Solution: 150

Exercise: Queued: `O=C(NCCN1CCCCC1)c1ccc(NCCN2CCCCC2)c2cc3ccccc3nc12`
Solution: 135

* * *

Parameter: K app. Scope: all listed entries.
System: Nucleic Acid
Method Notes: Tested for binding affinity against AT from [poly(dA-dT)]2.
Type: nucleic-acid assay
Don't forget the unit after the number, please.

The following compounds have reported results that may help.
CN(C)CCNC(=O)c1cccc2cc3ccccc3nc12 ... 1.4e+06 M⁻¹
COc1ccc2nc3c(C(=O)NCCN(C)C)ccc(NCCN(C)C)c3cc2c1 ... 1.4e+07 M⁻¹
CCN(CC)CCNC(=O)c1ccc(NCCN(CC)CC)c2cc3ccccc3nc12 ... 1.7e+07 M⁻¹
O=C(NCCN1CCCCC1)c1ccc(NCCN2CCCCC2)c2cc3ccccc3nc12 ... 2.7e+07 M⁻¹

Next up:
Exercise: Query the reported K app for Nucleic Acid; item: `CN(C)CCNC(=O)c1ccc(NCCN(C)C)c2cc3ccccc3nc12`
Solution: 2.8e+07 M⁻¹

* * *

System: HT-29
Method Notes: The compound was tested for cytotoxic activity against HT-29 cell line(human colon adeno carcinoma)
Type: functional, cell-based
Measured Endpoint: pIC50
Friendly reminder that pIC50 comes from taking -log10 of the concentration in mol/L.

Exercise: Name the reported pIC50 value associated with the compound `CCN(CC)CCNC(=O)c1ccc(NCCN(CC)CC)c2cc3ccccc3nc12`
Solution: 6.24

Exercise: Next up: `COc1ccc2nc3c(C(=O)NCCN(C)C)ccc(NCCN(C)C)c3cc2c1`
Solution: 6.25

Exercise: Quick one: `CN(C)CCNC(=O)c1ccc(NCCNCCO)c2cc3ccccc3nc12`
Solution: 7.00

Exercise: Again, but for `O=C(NCCN1CCCCC1)c1ccc(NCCN2CCCCC2)c2cc3ccccc3nc12`
Solution: 6.36

Exercise: Also `CN(C)CCNC(=O)c1ccc(NCCN(C)C)c2cc3ccccc3nc12` ?
Solution: 8.15

* * *

# reported K app; entries follow
Test system: Nucleic Acid
Method Notes: Binding affinity against GC from [poly(dG-dC)]2.
Assay type: nucleic-acid assay
Reply with just the number (in M⁻¹).

O=C(NCCN1CCOCC1)c1ccc(NCCN2CCOCC2)c2cc3ccccc3nc12 ... 3e+06
CN(C)CCNC(=O)c1ccc(NCCN(C)C)c2cc3cc(O)ccc3nc12 ... 1e+08
O=C(NCCN1CCCCC1)c1ccc(NCCN2CCCCC2)c2cc3ccccc3nc12 ... 6.3e+07
NCCNC(=O)c1ccc(NCCN)c2cc3ccccc3nc12 ... 5.6e+07
CN(C)CCNC(=O)c1ccc(NCCN(C)C)c2cc3ccccc3nc12 ... 2.3e+08

// moving on: another record for K app
Exercise: Enter reported K app observed with Nucleic Acid for `COc1ccc2nc3c(C(=O)NCCN(C)C)ccc(NCCN(C)C)c3cc2c1`
Solution: 5.9e+07
